B1: Calcium-binding protein 2, residues 155 to 219; numbered along this chain, Q9NPB3 (parent)
chain: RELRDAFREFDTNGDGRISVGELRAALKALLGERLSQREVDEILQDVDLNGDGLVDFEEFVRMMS

variants of: B1; assay: abundance fitness (aPCA) (normalised: wild type 0, dead -1); higher = more abundant; growth selection in yeast, the domain comes from the species named; details: Homo sapiens
Classify as follows. Reported abundance fitness greater than or equal to -0.2: y. Reported abundance fitness below: n.

As a guide, the following entries are already answered.
1. Q45G y
2. A25W y
3. V61M n
4. F7Q n

Consider the additional variant presented here.
Quick check: does V20N have abundance fitness greater than or equal to -0.2? y
